Test system: E. coli TESEC Alr+ wild-type control
Assay text: growth (OD600 after 10 h); higher = more growth (less inhibition)
Experimental setup: compound 0.1 mM; raw OD600 reference: median of DMSO wells 0.241, cell-free background 0.041
Counter-ions that a name gives are not always drawn.
Label Not satisfied if growth falls below 0.2; label Satisfied in every other case.

[
  {
    "Molecule": "COc1cc(C(=O)NCc2ccc(OCCN(C)C)cc2)cc(OC)c1OC [Trimethobenzamide hydrochloride]",
    "Class": "Satisfied"
  },
  {
    "Molecule": "CC(C)NCC(O)COc1ccc(COCCOC(C)C)cc1 (centres undefined) [Bisoprolol fumarate]",
    "Class": "Satisfied"
  },
  {
    "Molecule": "O=C1CC[C@@H](C(=O)N2CSC[C@H]2C(=O)O)N1 [Pidotimod]",
    "Class": "Satisfied"
  },
  {
    "Molecule": "Cc1ccsc1/C=C/C1=NCCCN1C [Morantel tartrate]",
    "Class": "Satisfied"
  },
  {
    "Molecule": "C=CCSCC1Nc2cc(Cl)c(S(N)(=O)=O)cc2S(=O)(=O)N1 (centres undefined) [Althiazide]",
    "Class": "Satisfied"
  },
  {
    "Molecule": "CN[C@@H]1[C@H](O[C@H]2[C@H](O[C@H]3[C@H](O)[C@@H](O)[C@H](NC(=N)N)[C@@H](O)[C@@H]3NC(=N)N)O[C@@H](C)[C@]2(O)CO)O[C@@H](CO)[C@H](O)[C@H]1O [Dihydrostreptomycin sulfate]",
    "Class": "Not satisfied"
  },
  {
    "Molecule": "C[C@]12CC[C@@H]3c4ccc(O)cc4CC[C@H]3[C@@H]1CCC2=O [Estrone]",
    "Class": "Not satisfied"
  },
  {
    "Molecule": "C#C[C@]1(O)CC[C@H]2[C@@H]3CCC4=Cc5oncc5C[C@]4(C)[C@H]3CC[C@@]21C [Danazol]",
    "Class": "Not satisfied"
  },
  {
    "Molecule": "CCOC(=O)c1ccc(N)cc1 [Benzocaine]",
    "Class": "Satisfied"
  },
  {
    "Molecule": "CC(C)(C)CC(C)(C)c1ccc(OCCOCC[N+](C)(C)Cc2ccccc2)cc1 [Benzethonium chloride]",
    "Class": "Not satisfied"
  },
  {
    "Molecule": "Cc1ccnc(NS(=O)(=O)c2ccc(N)cc2)n1 [Sulfamerazine]",
    "Class": "Satisfied"
  },
  {
    "Molecule": "CC(C)NCC(O)c1ccc(NS(C)(=O)=O)cc1 (centres undefined) [Sotalol hydrochloride]",
    "Class": "Not satisfied"
  },
  {
    "Molecule": "OCCN1CCN(CC/C=C2/c3ccccc3Sc3ccc(Cl)cc32)CC1 [Zuclopenthixol dihydrochloride]",
    "Class": "Not satisfied"
  },
  {
    "Molecule": "CC[N+](CC)(CC)CCC(O)(c1ccccc1)C1CCCCC1 (centres undefined) [Tridihexethyl chloride]",
    "Class": "Satisfied"
  },
  {
    "Molecule": "Nc1nc(=O)c2nc(CNc3ccc(C(=O)N[C@@H](CCC(=O)O)C(=O)O)cc3)cnc2[nH]1 [Folic acid]",
    "Class": "Satisfied"
  },
  {
    "Molecule": "CC=CC1=C(C(=O)O)N2C(=O)[C@@H](NC(=O)[C@H](N)c3ccc(O)cc3)[C@H]2SC1 [Cefprozil]",
    "Class": "Satisfied"
  },
  {
    "Molecule": "CCN(CC)CCOC(=O)C(Cc1cccc2ccccc12)CC1CCCO1 (centres undefined) [Nafronyl oxalate]",
    "Class": "Not satisfied"
  },
  {
    "Molecule": "CCCCNc1c(C(=O)OCC)c(C)nc2c1cnn2CC [Tracazolate hydrochloride]",
    "Class": "Not satisfied"
  },
  {
    "Molecule": "CC(Oc1c(Cl)cccc1Cl)C1=NCCN1 (centres undefined) [Lofexidine]",
    "Class": "Satisfied"
  },
  {
    "Molecule": "CN1C2CCCC1CC(NC(=O)c1nn(C)c3ccccc13)C2 (centres undefined) [Granisetron]",
    "Class": "Satisfied"
  },
  {
    "Molecule": "NS(=O)(=O)Cc1noc2ccccc12 [Zonisamide]",
    "Class": "Satisfied"
  },
  {
    "Molecule": "CC(C)(O)c1ccccc1CC[C@@H](SCC1(CC(=O)O)CC1)c1cccc(/C=C/c2ccc3ccc(Cl)cc3n2)c1 [Montelukast]",
    "Class": "Satisfied"
  },
  {
    "Molecule": "CC(C)NCC(O)c1cc(O)cc(O)c1 (centres undefined) [Metaproterenol sulfate, orciprenaline sulfate]",
    "Class": "Satisfied"
  },
  {
    "Molecule": "COC(=O)C1=C(C)NC(C)=C(C(=O)OCC(C)C)C1c1ccccc1[N+](=O)[O-] (centres undefined) [Nisoldipine]",
    "Class": "Not satisfied"
  },
  {
    "Molecule": "CNCC[C@@H](Oc1ccccc1C)c1ccccc1 [Tomoxetine hydrochloride]",
    "Class": "Satisfied"
  },
  {
    "Molecule": "CN(C)c1nc(N(C)C)nc(N(C)C)n1 [Altretamine]",
    "Class": "Satisfied"
  },
  {
    "Molecule": "CSc1ccc2c(c1)C(N1CCN(C)CC1)Cc1ccccc1S2 (centres undefined) [Methiothepin maleate]",
    "Class": "Not satisfied"
  },
  {
    "Molecule": "CC(=O)[C@@]12O[C@](C)(c3ccccc3)O[C@@H]1C[C@H]1[C@@H]3CCC4=CC(=O)CC[C@]4(C)[C@H]3CC[C@@]12C [Algestone acetophenide]",
    "Class": "Satisfied"
  },
  {
    "Molecule": "Cc1ncc([N+](=O)[O-])n1CCO [Metronidazole]",
    "Class": "Satisfied"
  },
  {
    "Molecule": "c1ccc2c(c1)CCCc1cc(NCCN3CCOCC3)nnc1-2",
    "Class": "Satisfied"
  },
  {
    "Molecule": "CCOC(=O)[C@H](CCc1ccccc1)N[C@@H](C)C(=O)N1CCC[C@H]1C(=O)O [Enalapril maleate]",
    "Class": "Satisfied"
  },
  {
    "Molecule": "CCCOc1ccc(C(=O)OCCN(CC)CC)cc1N [Proparacaine hydrochloride]",
    "Class": "Satisfied"
  }
]
